# System Name: Vasopressin V1 receptor subtype in Human Platelet Membranes (Homo sapiens, UniProt P37288)
# Construct: tissue Hudson Valley Blood Services, Westchester Medical Center, Valhalla, N.Y
# Sequence (P37288 whole entry): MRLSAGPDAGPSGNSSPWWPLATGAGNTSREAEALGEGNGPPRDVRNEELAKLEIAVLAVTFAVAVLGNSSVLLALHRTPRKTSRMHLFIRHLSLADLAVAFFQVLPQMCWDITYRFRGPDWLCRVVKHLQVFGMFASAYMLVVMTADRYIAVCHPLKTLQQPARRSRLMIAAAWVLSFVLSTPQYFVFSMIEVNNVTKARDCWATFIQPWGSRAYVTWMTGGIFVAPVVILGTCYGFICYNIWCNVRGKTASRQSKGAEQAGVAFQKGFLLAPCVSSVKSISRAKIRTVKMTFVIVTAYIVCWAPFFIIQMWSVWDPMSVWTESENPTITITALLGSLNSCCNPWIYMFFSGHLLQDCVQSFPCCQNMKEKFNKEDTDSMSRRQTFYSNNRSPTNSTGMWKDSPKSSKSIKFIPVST
# Assay Info: Binding to Vasopressin V1 receptor subtype in Human Platelet Membranes
Assay Endpoint: IC50 (µM)

a. CN(C)Cc1ccc2n1Cc1ccccc1N(C(=O)c1ccc(-c3cccs3)cc1)C2 [Example 6]
b. O=C(c1ccc(-c2cccs2)cc1)N1Cc2cccn2Cc2ccccc21 [drawing 73]
Exercise: Returns the identifier with the smallest measured IC50 among a and b . Provide the label of your selected option as the answer.
Key: b
(b: 0.013 µM, a: 0.063 µM)

----------
# System Name: oxytocin receptors (Rattus norvegicus)
# Construct: The uteri are dissected out, cleaned of fat and connective tissues; from tissue; host or cells: uteri of DES-treated female Sprague-Dawley rats
# Assay Info: Oxytocin Receptor Binding
# Design: species or system rat (female Sprague-Dawley)
Assay Endpoint: inhibition at 10 µM (%)

Worked examples, 10 molecules total:
O=C(c1ccc(-c2nccs2)cc1)N1Cc2cccn2Cc2ccccc21 [Example 10] ... 77
O=C(c1ccc(-c2ccccc2)cc1)N1Cc2cccn2-c2ccccc21 [Example 17] ... 92
CN(C)Cc1ccc2n1Cc1ccccc1N(C(=O)c1ccc(-c3cccs3)cc1)C2 [Example 6] ... 100
Cc1ccc(Sc2ccc(C(=O)N3Cc4cccn4Cc4ccccc43)cc2)cc1 [Example 11] ... 86
C=CCOc1ccc(-c2ccc(C(=O)N3Cc4cccn4Cc4ccccc43)cc2)cc1 [Example 14] ... 67
O=C(c1ccc(-c2cc(F)cc(F)c2)cc1)N1Cc2cccn2Cc2ccccc21 [Example 3] ... 89
O=C(c1ccc(C#Cc2ccccc2)cc1)N1Cc2cccn2Cc2ccccc21 [Example 4] ... 62
CCCc1ccc(-c2ccc(C(=O)N3Cc4cccn4Cc4ccccc43)cc2)cc1 [Example 21] ... 68
O=C(c1ccc(-c2ccccc2)cc1)N1Cc2cccn2Cc2ccccc21 [Example 19] ... 81
CN(C)Cc1ccc2n1Cc1ccccc1N(C(=O)c1ccc(-c3ccccc3)cc1)C2 [Example 20] ... 100

a. O=C(c1ccc(-c2cccs2)nc1)N1Cc2cccn2Cc2ccccc21 [Example 22]
b. Cc1ccc(S(=O)(=O)c2ccc(C(=O)N3Cc4cccn4Cc4ccccc43)cc2)cc1 [Example 13]
Exercise: Returns the identifier with the smallest measured inhibition at 10 µM among a and b . Provide the label of your selected option as the answer.
Key: b

----------
# Time (of maximum % inhibition) per record follows
# Test system: Vasopressin V1
# Assay Info: Vasopressin V1 Antagonist Activity in Conscious Rats (vasopressin vasopressor response)
# Assay type: in vivo, rat
# Condition Context: 10 mg/kg iv
// units = min; emit number, no label

Worked examples, 3 compounds total:
O=C(c1ccc(-c2ccccn2)cc1)N1Cc2cccn2Cc2ccccc21 ... 30
O=C(c1ccccc1)c1ccc(C(=O)N2Cc3cccn3Cc3ccccc32)cc1 ... 240
O=C(c1ccc(-c2ccccc2)cc1)N1Cc2ccnn2Cc2ccccc21 ... 30

Exercise: Would you mind telling me what Time (of maximum % inhibition) value was observed for O=C(c1ccc(-c2cc(F)cc(F)c2)cc1)N1Cc2cccn2Cc2ccccc21 ?
Key: 30

Exercise: Let us now turn to CN(C)Cc1ccc2n1Cc1ccccc1N(C(=O)c1ccc(-c3ccccc3)cc1)C2
Key: 240

Exercise: Let us now turn to O=C(c1ccc(-c2ccccc2)cc1)N1Cc2cccn2Cc2ccccc21
Key: 30

----------
# Max % Inhibition per record follows
# Tested on: Vasopressin V1
# Assay Info: Vasopressin V1 Antagonist Activity in Conscious Rats (vasopressin vasopressor response)
# Assay type: in vivo, rat
# Condition Context: 30 mg/kg iv; vasopressin vasopressor response
// units = %; emit number, no label

Worked examples, 4 molecules total:
O=C(c1ccc(-c2ccccc2)cc1)N1Cc2cccn2-c2ccccc21 [Example 17] ... 63
O=C(c1ccc(C#Cc2ccccc2)cc1)N1Cc2cccn2Cc2ccccc21 [Example 4] ... 30
Cc1ccc(Oc2ccc(C(=O)N3Cc4cccn4Cc4ccccc43)cc2)cc1 [Example 18] ... 36
Cc1ccc(Sc2ccc(C(=O)N3Cc4cccn4Cc4ccccc43)cc2)cc1 [Example 11] ... 54

Exercise: Tell me reported Max % Inhibition for C=CCOc1ccc(-c2ccc(C(=O)N3Cc4cccn4Cc4ccccc43)cc2)cc1 [Example 14] , tested with Vasopressin V1.
Key: 50

----------
# System Name: Rat Hepatic V1 Receptors (Rattus norvegicus, UniProt P30560)
# Construct: Rat liver plasma membranes expressing the vasopressin V1 receptor subtypes
# Sequence (P30560 whole entry): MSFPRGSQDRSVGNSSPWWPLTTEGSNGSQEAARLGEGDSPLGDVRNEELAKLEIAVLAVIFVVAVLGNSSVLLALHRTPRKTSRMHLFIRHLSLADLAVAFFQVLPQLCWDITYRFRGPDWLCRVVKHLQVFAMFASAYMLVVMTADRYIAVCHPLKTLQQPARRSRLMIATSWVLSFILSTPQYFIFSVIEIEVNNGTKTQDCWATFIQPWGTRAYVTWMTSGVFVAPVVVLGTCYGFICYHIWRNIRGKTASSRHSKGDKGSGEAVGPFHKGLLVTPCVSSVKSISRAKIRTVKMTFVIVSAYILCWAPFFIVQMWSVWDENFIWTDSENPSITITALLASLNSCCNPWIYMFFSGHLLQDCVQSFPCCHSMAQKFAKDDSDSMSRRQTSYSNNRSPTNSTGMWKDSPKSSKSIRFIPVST
# Assay Info: Binding Assay to Rat Hepatic V1 Receptors
# Condition Context: rat hepatic V1 (no asterisk)
Assay Endpoint: IC50 (nM)

a. O=C(c1ccc(-c2ccccn2)cc1)N1Cc2cccn2Cc2ccccc21
b. O=C(c1ccc(-c2ccccc2C(F)(F)F)cc1)N1Cc2cccn2Cc2ccccc21
Exercise: Returns the identifier with the smallest measured IC50 among a and b . Provide the label of your selected option as the answer.
Key: a

----------
# System Name: Human V2 Vasopressin Receptor (Homo sapiens, UniProt P30518)
# Sequence (P30518 whole entry): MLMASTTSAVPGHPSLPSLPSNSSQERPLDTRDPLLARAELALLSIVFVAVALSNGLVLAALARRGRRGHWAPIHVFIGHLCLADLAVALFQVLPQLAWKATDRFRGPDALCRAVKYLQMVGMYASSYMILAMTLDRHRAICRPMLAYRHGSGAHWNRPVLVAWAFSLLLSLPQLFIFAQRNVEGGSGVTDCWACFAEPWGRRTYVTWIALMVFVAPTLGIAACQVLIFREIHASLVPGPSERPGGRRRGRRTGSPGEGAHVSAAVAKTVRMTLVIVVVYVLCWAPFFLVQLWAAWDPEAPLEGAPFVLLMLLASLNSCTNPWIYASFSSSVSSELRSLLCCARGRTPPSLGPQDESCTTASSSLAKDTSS
Assay Endpoint: IC50 (nM)

Worked examples, 3 compounds total:
O=C(c1ccc(-c2ccccc2[N+](=O)[O-])cc1)N1Cc2cccn2Cc2ccccc21 [Example 2] ... 96
O=C(c1ccc(-c2cccs2)nc1)N1Cc2cccn2Cc2ccccc21 [Example 22] ... 3600
CCCc1ccc(-c2ccc(C(=O)N3Cc4cccn4Cc4ccccc43)cc2)cc1 [Example 21] ... 58

I. CN(C)Cc1ccc2n1Cc1ccccc1N(C(=O)c1ccc(-c3cccs3)cc1)C2 [Example 6]
II. O=C(c1ccc(-c2cccs2)cc1)N1Cc2cccn2Cc2ccccc21 [drawing 73]
Exercise: I'd appreciate it if you could identify which of I and II has the greater IC50. Provide the label of your selected option as the answer.
Key: I

----------
# System Name: Vasopressin V1 receptor subtype in Human Platelet Membranes (Homo sapiens, UniProt P37288)
# Construct: tissue Hudson Valley Blood Services, Westchester Medical Center, Valhalla, N.Y; host or cells: human platelets (frozen platelet rich plasma)
# Assay Info: Binding to Vasopressin V1 receptor subtype in Human Platelet Membranes
pIC50: −log10 of the molar value.
Assay Endpoint: pIC50

Worked examples, 2 molecules total:
Cc1ccc(S(=O)(=O)c2ccc(C(=O)N3Cc4cccn4Cc4ccccc43)cc2)cc1 ... 7.68
CN(C)Cc1ccc2n1Cc1ccccc1N(C(=O)c1ccc(-c3ccccc3)cc1)C2 ... 7.89

a. O=C(c1ccc(-c2ccccc2[N+](=O)[O-])cc1)N1Cc2cccn2Cc2ccccc21
b. O=C(c1ccc(-c2ccccc2)cc1)N1Cc2ccnn2Cc2ccccc21
c. O=C(c1ccc(-c2ccccc2)cc1)N1Cc2cccn2Cc2ccccc21
d. O=C(c1ccc(-c2cccs2)nc1)N1Cc2cccn2Cc2ccccc21
Exercise: Order the 4 molecules from highest to lowest pIC50. Put the labels in the order asked and list them.
Key: c, b, a, d

P. Cc1ccccc1-c1ccc(C(=O)N2Cc3cccn3Cc3ccccc32)cc1
Q. CCCc1ccc(-c2ccc(C(=O)N3Cc4cccn4Cc4ccccc43)cc2)cc1
Exercise: Returns the identifier with the smallest measured pIC50 among P and Q . Provide the label of your selected option as the answer.
Key: P

----------
# System Name: oxytocin receptors (Rattus norvegicus, UniProt P70536)
# Construct: The uteri are dissected out, cleaned of fat and connective tissues; from tissue; host or cells: uteri of DES-treated female Sprague-Dawley rats
# Sequence (P70536 whole entry): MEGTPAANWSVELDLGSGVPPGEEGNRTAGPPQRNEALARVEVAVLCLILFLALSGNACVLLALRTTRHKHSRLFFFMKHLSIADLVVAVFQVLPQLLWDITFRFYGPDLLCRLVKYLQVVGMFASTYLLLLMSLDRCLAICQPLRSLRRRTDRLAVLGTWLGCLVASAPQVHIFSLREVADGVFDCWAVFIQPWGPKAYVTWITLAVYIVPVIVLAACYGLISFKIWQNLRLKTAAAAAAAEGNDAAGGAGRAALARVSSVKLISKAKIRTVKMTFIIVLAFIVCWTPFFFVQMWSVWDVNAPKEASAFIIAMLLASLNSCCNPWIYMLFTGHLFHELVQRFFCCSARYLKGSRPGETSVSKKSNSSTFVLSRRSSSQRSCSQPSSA
# Assay Info: Oxytocin Receptor Binding
# Design: species or system rat (female Sprague-Dawley)
Assay Endpoint: inhibition at 10 µM (%)

O=C(c1ccc(-c2ccccc2[N+](=O)[O-])cc1)N1Cc2cccn2Cc2ccccc21 ... 100
O=C(c1ccccc1)c1ccc(C(=O)N2Cc3cccn3Cc3ccccc32)cc1 ... 100
O=C(c1ccc(-c2ccccc2)cc1)N1Cc2ccnn2Cc2ccccc21 ... 100
O=C(c1ccc(Sc2ccccc2)cc1)N1Cc2cccn2Cc2ccccc21 ... 98
O=C(c1ccc(-c2ccccn2)cc1)N1Cc2cccn2Cc2ccccc21 ... 100
O=C(c1ccc(S(=O)(=O)c2ccccc2)cc1)N1Cc2cccn2Cc2ccccc21 ... 69
Cc1ccc(Oc2ccc(C(=O)N3Cc4cccn4Cc4ccccc43)cc2)cc1 ... 99
O=C(c1ccc(-c2ccccc2C(F)(F)F)cc1)N1Cc2cccn2Cc2ccccc21 ... 95
